Below, each entry is listed with its recorded melting point.

O=C1c2cc(O)ccc2OCC1Cc1c[nH]c2ccccc12 (stereo unspecified)	188 to 190 °C
Cc1cc(CNC(=O)c2ccnc(N3CCN(Cc4ccc(F)cc4)C3=O)c2)nn1C	150 to 152 °C
COc1ccc(S(=O)(=O)Nc2cccnc2Nc2ccc(F)cc2)cc1	196 to 197 °C
Cc1nc(CCOc2ccc([N+](=O)[O-])cc2)c(C)o1	97 to 98 °C
c1ccc(NC2CCCN2Cc2c[nH]c3ccccc23)cc1 (stereo unspecified)	150 to 151 °C
CCOC(=O)CCCOc1cccc2cc(C(C)=O)oc12	47.1 to 48.4 °C

q: Fill in reported melting point for this entry: CNc1ccc(-c2cnc3[nH]cc(C(=O)C4(C)CCCCC4)c3n2)cc1
a: 273 to 275 °C

q: Please look at this compound and report its melting point: Cc1nnc2c(-c3ccccn3)cccn12
a: 142 to 143 °C

q: In one line, give reported melting point of the entry CCCCNC1CC(C)(C)N(CCO)C(C)(C)C1 .
a: 106 to 111 °C

q: Using known records, supply melting point for Cc1cccc(C2=NC(C)(C(C)C)C(=S)N2)c1 (stereo unspecified)
a: 122 to 123 °C

q: Please look at this compound and report its melting point: CNC(=O)c1cccc(NC(=O)CCc2ccc(O)cc2)c1
a: 158 °C

q: Provide only the value of recorded melting point for O=C(C[C@H](NC(=O)C(F)(F)F)C(=O)O)c1ccc2oc3ccccc3c2c1
a: 140 to 144 °C

q: Indicate the recorded melting point value for this compound: CN(C)c1ccc(/C=C/c2ccc(F)cc2F)cc1
a: 139 to 140 °C

q: Answer with the recorded melting point for the compound listed here: Cc1ccc(-c2ccc3cc4c(cc3c2)C(C)(C)CCC4(C)C)cc1
a: 91 to 92 °C

q: Provide measured melting point value, entry: CC(C)(Cc1ccccc1)OC(=O)Nc1ccc(-c2ncn(-c3ccc(OC(F)(F)F)cc3)n2)cc1
a: 153 to 155 °C

---

Known melting point of a selection of compounds

Cc1oc(-c2ccccc2)nc1COc1ccc2c(c1)CCC(CO)=C2	141 to 142 °C

q: Tell us which melting point value is on record for CS(=O)(=O)On1nnc2c(Cl)cccc21
a: 71 to 74 °C

q: Please list melting point recorded for the compound CCC1(CC)c2cc(-c3cc4ccccc4[nH]3)ccc2-c2ccc(N(c3ccccc3)c3ccccc3)cc21
a: 102 to 104 °C

---

Test readout: melting point (°C)

Cc1ccc(S(=O)(=O)NOC(C)C)cc1	104

1: COc1cc(Cl)ccc1C(Nc1ccc(F)c2nc(C)ncc12)C(O)(C=C(C)C)C(F)(F)F (stereo not given)
2: O=[N+]([O-])c1cc(S(=O)(=O)Oc2ccccc2)ccc1Cl
q: Select the item whose melting point value is smaller, choosing between 1 and 2 . Mark your answer with the label of the selected entry.
a: 2
(2: 71 °C, 1: 118 °C)

---

Test readout: melting point

CC(=O)Oc1cnc(C(C)(C)C)nc1O	164 °C
CCOC(=O)C(Oc1ccc2ccccc2c1)C(=O)OCC	57 to 58.5 °C
CCOC(=O)C1Cc2c(OC)ccc(OC)c2CO1 (stereo not given)	59.8 °C
CC1(COC(=O)N2CCN(c3ccc(OC(F)(F)F)cc3)CC2)Cn2cc([N+](=O)[O-])nc2O1 (stereo not given)	138 to 140 °C
O=C1CCCCC1c1cnc2ccccc2c1 (stereo not given)	114 to 115 °C
COc1ccc2c(c1)C(C(=O)N(Cc1ccc(C#N)cc1)c1ccc(C(C)C)cc1)CCC2 (stereo not given)	137 to 138 °C

q: Output melting point of CC(=O)c1cc2c(c(Cl)c1O)OC(C(O)=NO)C2 (stereo not given)
a: 234 to 235 °C

q: Please give measured melting point of the following entry: CCOC(=O)/C=C/c1cc(C(C)C)c(OC(C)=O)c2c(C)cccc12
a: 122 to 123 °C

q: Tell me melting point reported for O=C(Nc1cccc(S(=O)(=O)N2CCOCC2)c1)c1cnn2c(C(F)F)cc(-c3ccc(Cl)cc3)nc12
a: 253 °C

q: Hello, please tell me recorded melting point for this one: CC(C)CC1CC(=O)c2cc(CC(=O)O)ccc21 (stereo not given)
a: 140 to 142 °C
